# System: FGFR2
# STATED CONDITIONS: concentration: 1 μM, replicates: in singlicate; n = 1;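 note: KINOMEscan kinase panel screen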
METRIC NAME: %Inh (%)
Form entry: value (%) — number only.

Cl.Cl.NCC(NCc1ccc(-c2ccnc3[nH]ccc23)s1)c1ccccc1 (stereo not shown) :: 0
COC(=O)Nc1nc2cc(Oc3ccc(NC(=O)Nc4cc(C(F)(F)F)ccc4F)cn3)ccc2[nH]1.Cl.Cl :: 0
c1ccc(Oc2ccc(Nc3ccnc4cc(-c5ccc(CNCCN6CCOCC6)o5)ccc34)cc2)nc1 :: 4

Below: the item to evaluate.
Request: Test system FGFR2; read-out %Inh; what value for COc1ccc(Nc2nccc(NCCNC(=O)c3cc4ccccc4s3)n2)cc1 ?
Result: 0

----------
# System: IRAK1
# STATED CONDITIONS: concentration: 1 μM, replicates: in singlicate; n = 1
%Inh values by entry
Numbers only here, please. The scale is %.

c1ccc(-c2cnc3nccnn23)cc1 :: 0
CSc1cccc2c(-c3ccncn3)c(-c3ccc(F)cc3)nn12 :: 10

Request: // %Inh lookup, key: CC(C)(C)c1ccc2nccc(Nc3cccc(O)c3)c2c1
Result: 0

Request: CNC(=O)c1ccccc1Nc1nc(Nc2ccc(N3CCOCC3)cc2)ncc1Cl.Cl
Result: 100

Request: What about Cc1ccc(S(=O)(=O)Nc2ccc(Nc3nccc(Nc4cccc5[nH]ncc45)n3)cc2)cc1 ?
Result: 29

----------
Here the recorded %Inh is given for each entry.
# System: LIMK2
# STATED CONDITIONS: concentration: 1 μM, replicates: in singlicate; n = 1
Please make sure the unit comes right after the number.

COc1ccc(Nc2nccc(NCCNC(=O)c3cc4ccccc4s3)n2)cc1 :: 0%
O=C(NC1CCN(c2ccnc(Nc3ccc(F)cc3)n2)C1)c1cc2ccccc2s1 (centres unmarked) :: 0%
Nc1ncc(-c2ccc3nccc(-c4ccncc4)c3c2)cc1S(=O)(=O)N1CCOCC1 :: 0%

Request: For COCCOCCOc1cc2ncc3c4ccc(C#N)cc4[nH]c3c2cc1OC , what is its reported %Inh?
Result: 1%

----------
# Test system: BMPR1A
# STATED CONDITIONS: concentration: 1 μM, replicates: in singlicate; n = 1
The reader will find reported %Inh values listed item by item below.

CN(C)Cc1ccc(-c2ccc3c(Nc4ccc(Oc5ccccn5)cc4)ccnc3c2)o1 [GW567148] :: 0%
Cc1ccc(C(=O)N2CC[C@@H](O)C2)cc1-n1c(C)cc(OCc2ccc(F)cc2F)c(Br)c1=O :: 0%
COc1cccc(NC(=O)NC2CCN(c3ccnc(Nc4cc(OC)c(OC)c(OC)c4)n3)C2)c1 (stereo not shown) [GSK1379763] :: 0%

As a next step, examine the compound that follows.
Request: What does the data say about its %Inh? Entry: Cl.Cl.NCC(NC(=O)c1cc(-c2ccccc2)c(-c2ccnc3[nH]ccc23)s1)c1ccccc1 (stereo not shown) [GSK1321561]
Result: 4%

----------
# System: CSF1R-autoinhibited
# STATED CONDITIONS: concentration: 1 μM, replicates: in singlicate; n = 1
METRIC NAME: %Inh
A complete answer gives the number followed by the unit.

Request: State the recorded %Inh for this entry: O=C(Nc1cccc(Oc2ccc3nc(NC(=O)C4CC4)cn3n2)c1)c1ccccc1C(F)(F)F
Result: 88%

----------
# Test system: PLK4
# STATED CONDITIONS: concentration: 1 μM, replicates: in singlicate; n = 1
METRIC NAME: %Inh (%)
Reply numerically in %, unit not repeated.

Known results for molecules:
Clc1ccc(-c2nn3ncccc3c2-c2ccnc(Nc3ccc4c(c3)OCCO4)n2)cc1 :: 2
Nc1ncc(-c2ccc3nccc(-c4ccncc4)c3c2)cc1S(=O)(=O)N1CCOCC1 :: 0
COc1ccc(Nc2nccc(NCCNC(=O)c3cc4ccccc4s3)n2)cc1 :: 0

We now examine a further molecule.
Request: Find the recorded %Inh belonging to CN1CCN(CCCNc2nccc(-c3c(-c4ccc(F)cc4)nn4cc(C(F)(F)F)ccc34)n2)CC1 and report it.
Result: 12

----------
# Test system: RIOK2
# STATED CONDITIONS: concentration: 1 μM, replicates: in singlicate; n = 1
true means recorded %Inh is 6% or above; false means it is below 6%.

Please review the entries below; each comes with its answer.
Cc1cccc(NC(=O)Nc2ccc(Oc3ncnc4ccn(C)c34)cc2)c1 :: false
Nc1ncc(-c2ccc3nccc(-c4ccncc4)c3c2)cc1S(=O)(=O)N1CCOCC1 :: true
O=C(NC1CCN(c2ccnc(Nc3ccc(F)cc3)n2)C1)c1cc2ccccc2s1 (stereo not shown) :: false
COc1cccc(C2=C(Nc3ccc(Cl)c(C(=O)O)c3)C(=O)NC2=O)c1 :: false
O=C(Nc1cccc(Oc2ccc3nc(NC(=O)C4CC4)cn3n2)c1)c1ccccc1C(F)(F)F :: false

Request: Decide: %Inh of CCS(=O)(=O)c1ccc(OC)c(Nc2nccc(-c3c(-c4cccc(NC(=O)c5c(F)cccc5F)c4)nn4ncccc34)n2)c1 >= 6%?
Result: false

Request: CNC(=O)c1ccccc1Nc1nc(Nc2ccc(N3CCOCC3)cc2)ncc1Cl.Cl , same question.
Result: true

Request: Repeat for the following compound: Cc1ccc(C(=O)N2CC[C@@H](O)C2)cc1-n1c(C)cc(OCc2ccc(F)cc2F)c(Br)c1=O
Result: false

Request: # repeat for COc1ccc(-c2coc3ccc(-c4nnc(SCc5ccc(OC)c(C(F)(F)F)c5)o4)cc23)cc1
Result: true

Request: // query: NCCCC(NC(=O)c1cc(Br)c(-c2ccnc3[nH]ccc23)s1)c1ccccc1.O=C(O)C(F)(F)F.O=C(O)C(F)(F)F (stereo not shown)
Result: true

Request: Repeat for the following compound: COc1cccc(C(=O)Nc2cccc(Oc3ccc4nc(NC(=O)C5CC5)cn4n3)c2)c1
Result: false

Request: Moving on to Nc1n[nH]c2cnc(-c3ccccc3)cc12
Result: true

Request: Next compound: COc1ccc(CNC(=O)NC2CCN(c3ccnc(Nc4ccc(F)cc4)n3)CC2)cc1
Result: false

Request: Another compound: CC(=O)N1CCN(c2ccc(Nc3nccc(-c4sc(C(C)C)nc4-c4cccc(NS(=O)(=O)c5cccc(Cl)c5)c4)n3)cn2)CC1
Result: true

----------
# Test system: STK35
# STATED CONDITIONS: concentration: 1 μM, replicates: in singlicate; n = 1
Measured %Inh, listed per entry for reference.
Record the value in %, omitting the unit from your answer.

O=C(Nc1cccc(-c2nn3ncccc3c2-c2ccnc(Nc3ccccc3)n2)c1)c1c(F)cccc1F :: 79
CC(C)c1nc(-c2cccc(NS(=O)(=O)c3c(F)cccc3F)c2F)c(-c2ccnc(Nc3ccc(N4CCOCC4)nc3)n2)s1 :: 36
O=C(Nc1cccc(-c2nn3ccccc3c2-c2ccnc(Nc3cccc(F)c3)n2)c1)c1c(F)ccc(F)c1Cl :: 27
Clc1ccc(-c2nn3ncccc3c2-c2ccnc(Nc3ccc4c(c3)OCCO4)n2)cc1 :: 0
CCS(=O)(=O)c1ccc(OC)c(Nc2nccc(-c3c(-c4cccc(NC(=O)c5c(F)cccc5F)c4)nn4ncccc34)n2)c1 :: 0

Request: Fill in the blank: the reported %Inh of c1ccc(-c2cnc3nccnn23)cc1 is ____.
Result: 0

----------
Overview of recorded %Inh for various molecules
# System: PCTK1
# Construct: gene CDK16
# STATED CONDITIONS: concentration: 1 μM, replicates: in singlicate; n = 1
Give a bare numeral; the unit % is implied.

Example entries begin here.
CC(=O)Nc1nc2cnc(Nc3cc(NC(=O)c4cccc(C5(C#N)CC5)c4Cl)ccc3C)nc2s1 :: 6
COC(=O)Nc1nc2cc(Oc3ccc(NC(=O)Nc4cc(C(F)(F)F)ccc4F)cn3)ccc2[nH]1.Cl.Cl [GW681170] :: 0
CCc1ccc(-c2ccc3c(c2)-c2c(cnn2C)S(=O)(=O)N3C)cc1 :: 0
Cc1ccc(C(=O)Nc2ccc(Nc3ccnc4cc(-c5nccs5)ccc34)cc2O)cc1.Cl [GW494702] :: 0
CN(c1ccc(NC(=O)Nc2cc(C(F)(F)F)ccc2F)cc1)c1ccnc(Nc2ccc(S(N)(=O)=O)cc2)n1 [GW809893] :: 69

Request: Dear colleague, I am looking for the recorded %Inh of the following molecule: O=C(Nc1cccc(Oc2ccc3nc(NC(=O)C4CC4)cn3n2)c1)c1ccccc1C(F)(F)F
Result: 0

Request: Lookup COCCOCCOc1cc2ncc3c4ccc(C#N)cc4[nH]c3c2cc1OC
Result: 0

Request: Ok, now CN1CCN(Cc2cccc(-c3ccc4c(Nc5ccc(Oc6ccccc6)cc5)ccnc4c3)c2)CC1 [GW578342]
Result: 0

----------
Below: a set of entries, each annotated with reported %Inh.
# Tested on: WNK1
# STATED CONDITIONS: concentration: 1 μM, replicates: in singlicate; n = 1
Hi! Could you send only the number? It should be in %, unit omitted.

C[C@@H](Oc1cc(-n2cnc3cc(-c4ccnc(NCCS(C)(=O)=O)c4)ccc32)sc1C(N)=O)c1ccccc1Cl :: 37
Cn1cc(-c2[nH]c3cc(NC(=O)[C@H](N)C4CCCCC4)cc4c3c2C=NNC4=O)cn1 :: 0
O=C(Nc1cccc(-c2nn3ccccc3c2-c2ccnc(Nc3cccc(F)c3)n2)c1)c1c(F)ccc(F)c1Cl :: 3
CC(C)(C)c1ccc2nccc(Nc3cccc(O)c3)c2c1 :: 0
Cl.Cl.NCC(C(=O)Nc1cc(Br)c(-c2ccnc3[nH]ccc23)s1)c1ccccc1 (centres unmarked) :: 7
COc1cc(Nc2nccc(N3CCC(NC(=O)c4cc5ccccc5s4)C3)n2)cc(OC)c1OC (centres unmarked) :: 0

Request: Reported %Inh for CC(C)c1nc(-c2cccc(NS(=O)(=O)c3c(F)cccc3F)c2F)c(-c2ccnc(Nc3ccc(N4CCOCC4)nc3)n2)s1 : what is it?
Result: 3

Request: Let us now turn to O=C(NC1CCN(c2ccnc(Nc3ccc(F)cc3)n2)C1)c1cc2ccccc2s1 (centres unmarked)
Result: 20
